# System: 323965-272-R-J2-PDC complex spheroid viability
# TEST NAME: Anticancer human tumor 323965-272-R-J2-PDC patient-derived pancreatic carcinoma cell line growth inhibition [CLK]
# DETAILS: second compound 10 µM; first compound 1 µM; stronger effect = lower value
QUANTITY: viability, T/C (%)
Numeric only. Scale: %

Worked examples, 9 compounds total:
COMPOUND	UNIT OF MEASUREMENT	viability, T/C
CC(=O)O[C@H]1C(=O)[C@@]2(C)[C@H]([C@H](OC(=O)c3ccccc3)[C@]3(O)C[C@H](OC(=O)[C@H](O)[C@@H](NC(=O)c4ccccc4)c4ccccc4)C(C)=C1C3(C)C)[C@]1(OC(C)=O)CO[C@@H]1C[C@@H]2O + CNC(=O)c1ccc(Nc2nc(OC3CCCC3)c3c(-c4ccc5nc(C)oc5c4)c[nH]c3n2)c(OC)c1	%	55.8
CCc1c2c(nc3ccc(O)cc13)-c1cc3c(c(=O)n1C2)COC(=O)[C@]3(O)CC + CNC(=O)c1ccc(Nc2nc(OC3CCCC3)c3c(-c4ccc5nc(C)oc5c4)c[nH]c3n2)c(OC)c1	%	8.54
CCc1c2c(nc3ccc(O)cc13)-c1cc3c(c(=O)n1C2)COC(=O)[C@]3(O)CC + CN1CCN(c2cc(C(=O)Nc3cc4cc(-c5cnn(C)c5)ccc4cn3)ccn2)CC1	%	0.59
Nc1ccn(C2OC(CO)C(O)C2(F)F)c(=O)n1 (stereo not given) + CN1CCN(c2cc(C(=O)Nc3cc4cc(-c5cnn(C)c5)ccc4cn3)ccn2)CC1	%	4.61
COc1c(OCCCN2CCOCC2)ccc2c3n(c(=NC(=O)c4cnc(N)nc4)nc12)CCN3 + CNC(=O)c1ccc(Nc2nc(OC3CCCC3)c3c(-c4ccc5nc(C)oc5c4)c[nH]c3n2)c(OC)c1	%	13.5
CCN1CCN(Cc2ccc(Nc3ncc(F)c(-c4cc(F)c5nc(C)n(C(C)C)c5c4)n3)nc2)CC1 + CN1CCN(c2cc(C(=O)Nc3cc4cc(-c5cnn(C)c5)ccc4cn3)ccn2)CC1	%	5.11
COC1C=CCC(C)C(C)S(=O)(=O)NC(=O)c2ccc3c(c2)N(CC2CCC21)CC1(CCCc2cc(Cl)ccc21)CO3 (stereo not given) + CN1CCN(c2cc(C(=O)Nc3cc4cc(-c5cnn(C)c5)ccc4cn3)ccn2)CC1	%	3.47
Nc1ccccc1NC(=O)c1ccc(CNC(=O)OCc2cccnc2)cc1 + CNC(=O)c1ccc(Nc2nc(OC3CCCC3)c3c(-c4ccc5nc(C)oc5c4)c[nH]c3n2)c(OC)c1	%	37.5
Nc1ccccc1NC(=O)c1ccc(CNC(=O)OCc2cccnc2)cc1 + CN1CCN(c2cc(C(=O)Nc3cc4cc(-c5cnn(C)c5)ccc4cn3)ccn2)CC1	%	4.41

Request: Query for 323965-272-R-J2-PDC complex spheroid viability: what viability, T/C does the record show for CC1COCCN1c1cc(C2(S(C)(=N)=O)CC2)nc(-c2ccnc3[nH]ccc23)n1 (stereo not given) + CNC(=O)c1ccc(Nc2nc(OC3CCCC3)c3c(-c4ccc5nc(C)oc5c4)c[nH]c3n2)c(OC)c1 ?
Response: 28.5

* * *

# Tested on: 323965-272-R-J2-PDC complex spheroid viability
# TEST NAME: Anticancer human tumor 323965-272-R-J2-PDC cell line growth inhibition [CLK]; active = viability on the fitted dose curve at most 10% of control; inactive = the rest;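 also: spheroids exposed to agents for seven days before readout; percent of DMSO vehicle control wells so 100% = untreated growth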
# DETAILS: second compound 0.316 µM; first compound 10 µM
Field 'call' accepts True for active, False for inactive

// known answers, use as guide
MOLECULE	CLASS LABEL
COc1cccc2c1C(=O)c1c(O)c3c(c(O)c1C2=O)CC(O)(C(=O)CO)CC3OC1CC(N)C(O)C(C)O1 (stereo not drawn) + CNC(=O)c1ccc(Nc2nc(OC3CCCC3)c3c(-c4ccc5nc(C)oc5c4)c[nH]c3n2)c(OC)c1	True
O=c1[nH]cc(F)c(=O)[nH]1 + CNC(=O)c1ccc(Nc2nc(OC3CCCC3)c3c(-c4ccc5nc(C)oc5c4)c[nH]c3n2)c(OC)c1	False
C=CC(=O)N1CCN(c2nc(=O)n(-c3c(C)ccnc3C(C)C)c3nc(-c4c(O)cccc4F)c(F)cc23)C(C)C1 (stereo not drawn) + CNC(=O)c1ccc(Nc2nc(OC3CCCC3)c3c(-c4ccc5nc(C)oc5c4)c[nH]c3n2)c(OC)c1	False
COc1ccc([C@@H](O)c2cc(-c3ncnc4cc(N5CCOCC5)ccc34)c(F)cc2Cl)nn1 + CN1CCN(c2cc(C(=O)Nc3cc4cc(-c5cnn(C)c5)ccc4cn3)ccn2)CC1	False
COc1ccc([C@@H](O)c2cc(-c3ncnc4cc(N5CCOCC5)ccc34)c(F)cc2Cl)nn1 + CNC(=O)c1ccc(Nc2nc(OC3CCCC3)c3c(-c4ccc5nc(C)oc5c4)c[nH]c3n2)c(OC)c1	False
O=c1[nH]cc(F)c(=O)[nH]1 + CN1CCN(c2cc(C(=O)Nc3cc4cc(-c5cnn(C)c5)ccc4cn3)ccn2)CC1	False

Request: Any idea what this test logged for CC(Nc1ccc2c(c1)OCCn1cc(N3C(=O)OCC3C(F)F)nc1-2)C(N)=O (stereo not drawn) + CN1CCN(c2cc(C(=O)Nc3cc4cc(-c5cnn(C)c5)ccc4cn3)ccn2)CC1 ?
Response: False

Request: Any idea what this test logged for COC1C=CCC(C)C(C)S(=O)(=O)NC(=O)c2ccc3c(c2)N(CC2CCC21)CC1(CCCc2cc(Cl)ccc21)CO3 (stereo not drawn) + CN1CCN(c2cc(C(=O)Nc3cc4cc(-c5cnn(C)c5)ccc4cn3)ccn2)CC1 ?
Response: False

Request: Any idea what this test logged for O=C(c1cc(Cc2n[nH]c(=O)c3ccccc23)ccc1F)N1CCN(C(=O)C2CC2)CC1 + CNC(=O)c1ccc(Nc2nc(OC3CCCC3)c3c(-c4ccc5nc(C)oc5c4)c[nH]c3n2)c(OC)c1 ?
Response: False

Request: Any idea what this test logged for CC1(C)CCC(CN2CCN(c3ccc(C(=O)NS(=O)(=O)c4ccc(NCC5CCOCC5)c([N+](=O)[O-])c4)c(Oc4cnc5[nH]ccc5c4)c3)CC2)=C(c2ccc(Cl)cc2)C1 + CN1CCN(c2cc(C(=O)Nc3cc4cc(-c5cnn(C)c5)ccc4cn3)ccn2)CC1 ?
Response: False

Request: Any idea what this test logged for Nc1ccn(C2OC(CO)C(O)C2(F)F)c(=O)n1 (stereo not drawn) + CN1CCN(c2cc(C(=O)Nc3cc4cc(-c5cnn(C)c5)ccc4cn3)ccn2)CC1 ?
Response: False

Request: Any idea what this test logged for C=C(F)C(=O)N1CCN(c2nc(OCC3CCCN3C)nc3c2CCN(c2cccc4cccc(Cl)c24)C3)CC1CC#N (stereo not drawn) + CN1CCN(c2cc(C(=O)Nc3cc4cc(-c5cnn(C)c5)ccc4cn3)ccn2)CC1 ?
Response: True

Request: Any idea what this test logged for Nc1ccccc1NC(=O)c1ccc(CNC(=O)OCc2cccnc2)cc1 + CN1CCN(c2cc(C(=O)Nc3cc4cc(-c5cnn(C)c5)ccc4cn3)ccn2)CC1 ?
Response: False
